meta.source: the supplement of paper PMC9170038

# System: MS2 coat protein
# runDescription: apparent KD of MS2 coat protein; designed switch direction (-1 OFF switch, 1 ON switch): -1; higher = weaker reporter binding
# appliedConditions: Eterna round: R95; input ligand: none
Give apparent KD of MS2 coat protein for every item shown.
Answers are plain numbers, in nM.

{"columns": ["chain", "unitSymbol", "apparent KD of MS2 coat protein"],
 "data": [
  ["AGAAGUAGUAACCGAUCCUACAUGAGGAUCACCCAUGUAGCCAGACGUGCACGCGAAGCUCGUCAGACUACCAGAUG [salish99_TOv1_r3_026] (puzzle: Sensor v3, turn-off variant 1)", "nM", 398],
  ["UGGGUACUCCAUAGAAGAGACAUGAGGAUCACCCAUGUAGGGCAAGCUUUUUGCUCGUCUUAGGAUGAGGGAUAGGA [JR_SV3TOV1_Sub014] (puzzle: Sensor v3, turn-off variant 1)", "nM", 188],
  ["GAUAGAGAGCAGGAUAUCUUGGAUAAGUAUAGUAGAGAAGGGCUCACAUGAGGAUCACCCAUGUGGUCCAAGAU [JL Dibiri mod 12] (puzzle: Exclusion 6)", "nM", 15.8],
  ["AGACAGUCAGGAUAUACAUGAGGAUCACCCAUGUUGAGAUGAGAAAGGGCAGGAAGAGGUAGAAGGGACAAGAA [JR_Exclu3_Sub035] (puzzle: Exclusion 3)", "nM", 24.8],
  ["AUGGUACAUGAGGAUCACCCAUGUUAGGAUAUCGCGUGUUCUAAAACUAAGAGACACACGAGAAGGGACGACAU (puzzle: Exclusion 1)", "nM", 71.4],
  ["UUUAAUUUUUUUUUUUUACAAGCUUUUUGCUCGUCUUAUACAUGAGGAUCACCCAUGUAAGUGGAAGAUAAAUUAUC [JMF 10] (puzzle: Sensor v3, turn-off variant 2)", "nM", 16.5],
  ["AAGAAACGAGGAUAUACAAUUAAGAGAGAGAAGGAAAUGAGACAUGAGGAUCACCCAUGUAGAAGGCGUAAGAA [JR_Exclu2_Sub082] (puzzle: Exclusion 2)", "nM", 26.5],
  ["GGUUGGCGAGGAUAUACAUGAGGAUCACCCAUGUGAAAAUAAAGUGAGGAAAAGAAAAGUAGAAGGCGCUGACG [Mat - Exclusion 3 - Mod of Salish D55] (puzzle: Exclusion 3)", "nM", 118],
  ["CAGUACUGAGGAUAUACAUGAGGAUCACCCAUGUGUUCCAGCGAGGAAACUAGCAAAAGUAGAAGGCAGUACUG [salish99_ex3_r3_077] (puzzle: Exclusion 3)", "nM", 17.5],
  ["UUUAAUUUUUUUUUUUUACAAGCUUUUUGCUCGUCUUAUACAUGAGGAUCACCCAUGUAGGUGGGAAGUAAAUUAUC [JMF 57] (puzzle: Sensor v3, turn-off variant 2)", "nM", 37.5]
]}

Continue with the next sequence.
query: Query: apparent KD of MS2 coat protein; subject: ACGCCGCAAGGAUAUCGUAAAGCAGACAUGAGGAUCACCCAUGUGAUAUCAUAAAGGCCACGAGAAGGUGCACAAG [Quoredin] (puzzle: Exclusion 5)
result: 24.5
